Target: USP14 (Homo sapiens (Human))
Test: Usp14 inhibition assay (Example 57B, B-series compounds)
Format: biochemical
Settings: IC50 class; average value from a minimum of two experimental determinations
pIC50: −log10 of the molar value.
PARAMETER: pIC50

[
  {
    "COMPOUND": "Cc1c(C(=O)CN2C3CCC2CC3)cc(CCCCC#N)n1-c1ccc(Cl)cc1 [Example 31B]",
    "EXPERIMENTAL TARGET": "USP14 (Homo sapiens (Human))",
    "pIC50": "6.30 to 7.30"
  },
  {
    "COMPOUND": "Cc1cc(C(=O)CN2C3CCC2(C)CC3)c(C)n1-c1ccc(C#N)cc1 [Example 125B]",
    "EXPERIMENTAL TARGET": "USP14 (Homo sapiens (Human))",
    "pIC50": "6.30 to 7.30"
  },
  {
    "COMPOUND": "Cc1c(C(=O)CN2C3CCC2CC3)c(C)n(-c2ccc(C#N)cc2)c1CCCCS(C)(=O)=O [Example 1B]",
    "EXPERIMENTAL TARGET": "USP14 (Homo sapiens (Human))",
    "pIC50": "< 6.30"
  },
  {
    "COMPOUND": "Cc1nc(Cc2c(Cl)c(C(=O)CN3C4CCC3[C@@H](O)C4)c(C)n2-c2ccc(C#N)cc2)cs1 (some centres unmarked) [Example 128B]",
    "EXPERIMENTAL TARGET": "USP14 (Homo sapiens (Human))",
    "pIC50": "> 7.30"
  }
]

For the compound Cc1c(C#N)c(C(=O)CN2C3CCC2[C@@H](O)C3)c(C)n1-c1ccc(C#N)cc1 (mixture of isomers) [Example 33B] , what pIC50 is on record?
< 6.30

For the compound Cc1c(C(=O)CN2[C@@H]3CC[C@H]2[C@@H](O)C3)cc(/C=C/Cn2cccn2)n1-c1ccc(C#N)cc1 (racemic) [Example 27B] , what pIC50 is on record?
> 7.30

For the compound Cc1c(C(=O)CN2C3CCC2[C@@H](O)C3)c(Cl)c(/C=C/CC(C)(C)C#N)n1-c1ccc(C#N)cc1 (mixture of isomers) [Example 46B] , what pIC50 is on record?
6.30 to 7.30

For the compound Cc1cc(C(=O)CN2C3CC4CC2C(C3)O4)c(C)n1-c1ccc(C#N)cc1 (racemic) [Example 92B] , what pIC50 is on record?
6.30 to 7.30

For the compound Cc1c(C(=O)CN2[C@H]3CC[C@@H]2[C@@H](O)C3)cc(CC23CC(C2)C3)n1-c1ccc(C#N)cc1 (racemic) [Example 158B] , what pIC50 is on record?
< 6.30

For the compound Cc1cc(C(=O)CN2[C@@H]3CC[C@H]2[C@H]2CCO[C@H]23)c(C)n1-c1ccc(C#N)cc1 (racemic) [Example 139B] , what pIC50 is on record?
< 6.30

---

Target: USP14 (Homo sapiens (Human), UniProt P54578)
Sequence (P54578 whole entry, looked up): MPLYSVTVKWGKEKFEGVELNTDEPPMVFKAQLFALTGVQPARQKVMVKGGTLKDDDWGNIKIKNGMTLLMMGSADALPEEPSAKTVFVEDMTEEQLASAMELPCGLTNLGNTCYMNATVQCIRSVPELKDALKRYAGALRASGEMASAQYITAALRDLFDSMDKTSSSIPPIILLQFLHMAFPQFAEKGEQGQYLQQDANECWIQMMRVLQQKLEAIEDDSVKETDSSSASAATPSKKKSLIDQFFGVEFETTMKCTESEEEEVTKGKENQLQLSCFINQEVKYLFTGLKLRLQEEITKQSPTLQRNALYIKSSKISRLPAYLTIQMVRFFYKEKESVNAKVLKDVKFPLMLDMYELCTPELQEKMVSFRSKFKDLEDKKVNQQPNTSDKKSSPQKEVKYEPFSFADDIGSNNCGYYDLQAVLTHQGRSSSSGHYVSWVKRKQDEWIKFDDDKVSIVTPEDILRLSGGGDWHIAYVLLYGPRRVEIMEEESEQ
Assay: Usp14 inhibition assay (Example 57B, B-series compounds)
Format: biochemical
Details: IC50 class; average value from a minimum of two experimental determinations
pIC50: −log10 of the molar value.
Below, each of the compounds is paired with its reported pIC50 value.

Consider the worked cases shown below.
[
  {
    "COMPOUND": "Cc1c(F)c(C(=O)CN2[C@@H]3C=C(C(F)(F)F)[C@H]2CC3)c(C)n1-c1ccc(C#N)cc1 (racemic) [Example 149B]",
    "PARAMETER": "pIC50",
    "RESULT VALUE": "6.30 to 7.30"
  },
  {
    "COMPOUND": "Cc1c(C(=O)CN2[C@@H]3CC[C@H]2[C@@H](O)C3)cc(-c2csc(C(F)(F)F)n2)n1-c1ccc(C#N)cc1 (racemic) [Example 145B]",
    "PARAMETER": "pIC50",
    "RESULT VALUE": "< 6.30"
  },
  {
    "COMPOUND": "Cc1c(F)c(C(=O)CN2C3CCC2CC3)c(C)n1-c1ccc(C#N)cc1 [Example 104B]",
    "PARAMETER": "pIC50",
    "RESULT VALUE": "6.30 to 7.30"
  },
  {
    "COMPOUND": "Cc1cc(C(=O)CN2[C@@H]3CC[C@H]2[C@@H](C)[C@H]3C)c(C)n1-c1ccc(C#N)cc1 [Example 124B]",
    "PARAMETER": "pIC50",
    "RESULT VALUE": "6.30 to 7.30"
  },
  {
    "COMPOUND": "Cc1cc(C(=O)CN2[C@@H]3CC[C@H]2[C@H](C)C3)c(C)n1-c1ccc(C#N)cc1 (racemic) [Example 122B]",
    "PARAMETER": "pIC50",
    "RESULT VALUE": "6.30 to 7.30"
  },
  {
    "COMPOUND": "Cc1cc(C(=O)CN2C3CC4CC2CC(O)(C4)C3)c(C)n1-c1ccc(C#N)cc1 [Example 81B]",
    "PARAMETER": "pIC50",
    "RESULT VALUE": "6.30 to 7.30"
  }
]

For the compound COC1C[C@H]2CC[C@H](C1)N2CC(=O)c1cc(C)n(-c2ccc(C#N)cc2)c1C (stereo partly drawn) [Example 89B] , what pIC50 is on record?
6.30 to 7.30

For the compound Cc1cc(C(=O)CN2C3CCC2[C@@H](O)C3)c(C)n1-c1ccc(C#N)c(F)c1 (mixture of isomers) [Example 90B] , what pIC50 is on record?
> 7.30

For the compound Cc1cc(C(=O)CN2[C@@H]3CC[C@@H]2CC(C)(O)C3)c(C)n1-c1ccc(C#N)cc1 (stereo partly drawn) [Example 68B] , what pIC50 is on record?
6.30 to 7.30

For the compound Cc1cc(C(=O)CN2[C@@H]3CC[C@H]2[C@@H](OC(F)(F)F)C3)c(C)n1-c1ccc(C#N)cc1 (racemic) [Example 105B] , what pIC50 is on record?
< 6.30

For the compound Cc1c(C(=O)CN2C3CCC2[C@@H](O)C3)cc(C#N)n1-c1ccc(C#N)cc1 (mixture of isomers) [Example 47B] , what pIC50 is on record?
> 7.30

For the compound Cc1cc(C(=O)CN2[C@@H]3CC[C@H]2[C@H](C)[C@@H]3C)c(C)n1-c1ccc(C#N)cc1 [Example 138B] , what pIC50 is on record?
< 6.30

For the compound Cc1c(C(=O)CN2C3CCC2CC3)cc(/C=C\CCS(C)(=O)=O)n1-c1ccc(C#N)cc1 [Example 26B] , what pIC50 is on record?
> 7.30

For the compound CCC(C)c1cc(C(=O)CN2C3CCC2[C@@H](O)C3)c(C)n1-c1ccc(C#N)cc1 (mixture of isomers) [Example 114B] , what pIC50 is on record?
6.30 to 7.30

For the compound Cc1cc(C(=O)CN2[C@@H]3CC[C@@H]2CC(O)C3)c(C)n1-c1ccc(C#N)cc1 (stereo partly drawn) [Example 66B] , what pIC50 is on record?
6.30 to 7.30

---

Molecular target: USP14 (Homo sapiens (Human), UniProt P54578)
Test: Usp14 inhibition assay (Example 57B, B-series compounds)
Format: biochemical
Conditions: IC50 class; average value from a minimum of two experimental determinations
Source text: Example 57B: Usp14 Inhibition Assay The IC50 values in the Table below represent the average value from a minimum of two experimental determinations.
Below, each of the compounds is paired with its reported IC50 value.

Consider the worked cases shown below.
[
  {
    "COMPOUND": "Cc1c(C(=O)CN2C3CCC2[C@@H](O)C3)cc(CCCCS(C)(=O)=O)n1-c1ccc(C#N)cc1 (mixture of isomers) [Example 8B]",
    "PARAMETER": "IC50",
    "RESULT VALUE": "< 50 nM"
  },
  {
    "COMPOUND": "Cc1c(F)c(C(=O)CN2C3CCC2[C@@H](O)C3)c(C)n1-c1ccc(C#N)cc1 (mixture of isomers) [Example 78B]",
    "PARAMETER": "IC50",
    "RESULT VALUE": "50 to 500 nM"
  }
]

For the compound Cc1c(C(=O)CN2[C@@H]3CC[C@H]2[C@@H](O)C3)cc(C(C)C)n1-c1ccc(C#N)cc1 (racemic) [Example 112B] , what IC50 is on record?
50 to 500 nM

For the compound Cc1cc(C(=O)CN2[C@@H]3CC[C@H]2[C@@H](C)[C@@H]3C)c(C)n1-c1ccc(C#N)cc1 (racemic) [Example 140B] , what IC50 is on record?
50 to 500 nM

For the compound Cc1c(C(=O)CN2C3CCC2CC3)cc(/C=C/CCS(C)(=O)=O)n1-c1ccc(Cl)cc1 [Example 34B] , what IC50 is on record?
< 50 nM

For the compound Cc1c(C(=O)CN2C3CCC2[C@@H](O)C3)cc(CCCC2CC(C)(C)OC2=O)n1-c1ccc(C#N)cc1 (mixture of isomers) [Example 51B] , what IC50 is on record?
< 50 nM

For the compound Cc1c(C(=O)CN2C3CCC2[C@@H](O)C3)cc(CCC2CCOCC2)n1-c1ccc(C#N)cc1 (mixture of isomers) [Example 9B] , what IC50 is on record?
< 50 nM
